Each recorded value in this set is attributed to the RNAGym collection of RNA variant scans (doi:10.1126/science.aae0568).

# yeast fitness per entry
B1: tRNA (parent)
chain: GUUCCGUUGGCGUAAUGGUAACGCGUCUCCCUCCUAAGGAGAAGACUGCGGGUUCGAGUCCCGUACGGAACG

# Variants of: B1
# Protocol details: yeast fitness relative to wild type (ratio to wild type); higher = fitter; tRNA-Arg(CCU), competitive growth, 37 C, YPD
This sample holds only a part of the variants without activity.
Measured parameter: yeast fitness

- C4U A20U A40U G67C: ≤ 0.5
- G6C C29G C66G: ≤ 0.5
- C24U C34G A40G: ≤ 0.5
- G17C A37U A42U C49G G51A C61U: ≤ 0.5
- C5G A14U C33G A43U U54C: ≤ 0.5
- U54G G67C: ≤ 0.5
- A20G A37U C62A: ≤ 0.5
- C46G G63C G67A A70G: ≤ 0.5
- G6A C29A A37U G67C: ≤ 0.5
- C33A G58C C62G U64G: ≤ 0.5
- A21G C34U G63U: ≤ 0.5
- G23C C49A U59C G67A A69G: ≤ 0.5
- A14G C29A A37G: ≤ 0.5
- C11G U28C C60A G67A: 0.567
- C34G A45G: 0.657
- A15U C27G C49A G52U: ≤ 0.5
- U7C G41A A42C G50C A65U: ≤ 0.5
- C5U G10A: 0.702
- C11A G38A U53A: 0.543
- G10C C22G C29G C46U A65C: ≤ 0.5
- C4G C29G A36C A37U A40C A45G G51A A70U: ≤ 0.5
- G9C C27G C46U: 0.582
- U13G U28A C49A C55U C60U C61U: ≤ 0.5
- C5G A14U A20C A45G: ≤ 0.5
- C5A A21C C24A A70U: ≤ 0.5
- U47A G67C: 0.88
- A14G C29G A42C: ≤ 0.5
- G12C C34U C49U A57G: ≤ 0.5
- C5G A37C A57U: ≤ 0.5
- A15G G67U: 0.662
